The measurements presented in this section are drawn from PubChem BioAssay AID2060627.

# Test system: 156681-154-R-J1-PDC complex spheroid viability
# protocol.summary: Anticancer human tumor 156681-154-R-J1-PDC patient-derived melanoma cell line growth inhibition [CLK]
# run.conditions: curve of first compound; second compound 3.16 µM
# Description: A high-throughput screen of multi-cell type tumor spheroids was designed to identify active combinations of […] and targeted small molecules. Complex spheroids include a stromal component modeled by human endothelial cells (HUVEC) and fibroblasts modeled by human mesenchymal stem cells (MSCs). […] Compounds. […] If the clinical Cmax for an agent had not been determined, the highest concentration tested was 10 microM. […]
pIC50: −log10 of the molar value.

compound	assayed.system	pIC50
Cn1ncnc1[C@H]1c2n[nH]c(=O)c3cc(F)cc(c23)N[C@@H]1c1ccc(F)cc1 + CN1CCN(c2cc(C(=O)Nc3cc4cc(-c5cnn(C)c5)ccc4cn3)ccn2)CC1	156681-154-R-J1-PDC complex spheroid viability	> 9.50
O=C(c1cc(Cc2n[nH]c(=O)c3ccccc23)ccc1F)N1CCN(C(=O)C2CC2)CC1 + CN1CCN(c2cc(C(=O)Nc3cc4cc(-c5cnn(C)c5)ccc4cn3)ccn2)CC1	156681-154-R-J1-PDC complex spheroid viability	> 7.50
CC(Nc1ccc2c(c1)OCCn1cc(N3C(=O)OCC3C(F)F)nc1-2)C(N)=O (stereo not given) + CNC(=O)c1ccc(Nc2nc(OC3CCCC3)c3c(-c4ccc5nc(C)oc5c4)c[nH]c3n2)c(OC)c1	156681-154-R-J1-PDC complex spheroid viability	> 7.50
Nc1ccn(C2OC(CO)C(O)C2(F)F)c(=O)n1 (stereo not given) + CNC(=O)c1ccc(Nc2nc(OC3CCCC3)c3c(-c4ccc5nc(C)oc5c4)c[nH]c3n2)c(OC)c1	156681-154-R-J1-PDC complex spheroid viability	> 7.50
COc1c(OCCCN2CCOCC2)ccc2c3n(c(=NC(=O)c4cnc(N)nc4)nc12)CCN3 + CNC(=O)c1ccc(Nc2nc(OC3CCCC3)c3c(-c4ccc5nc(C)oc5c4)c[nH]c3n2)c(OC)c1	156681-154-R-J1-PDC complex spheroid viability	> 8.50

----------
pIC50 for assorted molecules
# System: 156681-154-R-J1-PDC complex spheroid viability
# protocol.summary: Anticancer human tumor 156681-154-R-J1-PDC cell line growth inhibition [CLK];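 also: spheroids exposed to the agents for seven days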
# run.conditions: curve of first compound; second compound 3.16 µM
pIC50: −log10 of the molar value.

molecule	pIC50
CC(Nc1ccc2c(c1)OCCn1cc(N3C(=O)OCC3C(F)F)nc1-2)C(N)=O (stereo unspecified) + CN1CCN(c2cc(C(=O)Nc3cc4cc(-c5cnn(C)c5)ccc4cn3)ccn2)CC1	> 7.50
COc1c(OCCCN2CCOCC2)ccc2c3n(c(=NC(=O)c4cnc(N)nc4)nc12)CCN3 + CN1CCN(c2cc(C(=O)Nc3cc4cc(-c5cnn(C)c5)ccc4cn3)ccn2)CC1	> 8.50
Nc1ccccc1NC(=O)c1ccc(CNC(=O)OCc2cccnc2)cc1 + CNC(=O)c1ccc(Nc2nc(OC3CCCC3)c3c(-c4ccc5nc(C)oc5c4)c[nH]c3n2)c(OC)c1	7.17
NC(=O)C(=Cn1cnc(-c2cc(C(F)(F)F)cc(C(F)(F)F)c2)n1)c1cncnc1 + CNC(=O)c1ccc(Nc2nc(OC3CCCC3)c3c(-c4ccc5nc(C)oc5c4)c[nH]c3n2)c(OC)c1	> 8.02
CC1(C)CCC(CN2CCN(c3ccc(C(=O)NS(=O)(=O)c4ccc(NCC5CCOCC5)c([N+](=O)[O-])c4)c(Oc4cnc5[nH]ccc5c4)c3)CC2)=C(c2ccc(Cl)cc2)C1 + CNC(=O)c1ccc(Nc2nc(OC3CCCC3)c3c(-c4ccc5nc(C)oc5c4)c[nH]c3n2)c(OC)c1	> 7.50
Nc1ccn(C2OC(CO)C(O)C2(F)F)c(=O)n1 (stereo unspecified) + CN1CCN(c2cc(C(=O)Nc3cc4cc(-c5cnn(C)c5)ccc4cn3)ccn2)CC1	> 7.50
C#Cc1c(F)ccc2cc(O)cc(-c3ncc4c(N5CC6CCC(C5)N6)nc(OCC56CCCN5CC(F)C6)nc4c3F)c12 (stereo unspecified) + CN1CCN(c2cc(C(=O)Nc3cc4cc(-c5cnn(C)c5)ccc4cn3)ccn2)CC1	> 7.50
C=CC(=O)N1CCN(c2nc(=O)n(-c3c(C)ccnc3C(C)C)c3nc(-c4c(O)cccc4F)c(F)cc23)C(C)C1 (stereo unspecified) + CNC(=O)c1ccc(Nc2nc(OC3CCCC3)c3c(-c4ccc5nc(C)oc5c4)c[nH]c3n2)c(OC)c1	> 7.50
CC1COCCN1c1cc(C2(S(C)(=N)=O)CC2)nc(-c2ccnc3[nH]ccc23)n1 (stereo unspecified) + CN1CCN(c2cc(C(=O)Nc3cc4cc(-c5cnn(C)c5)ccc4cn3)ccn2)CC1	> 7.50
O=C(c1cc(Cc2n[nH]c(=O)c3ccccc23)ccc1F)N1CCN(C(=O)C2CC2)CC1 + CNC(=O)c1ccc(Nc2nc(OC3CCCC3)c3c(-c4ccc5nc(C)oc5c4)c[nH]c3n2)c(OC)c1	> 7.50
CC(C)CC(NC(=O)C(Cc1ccccc1)NC(=O)c1cnccn1)B(O)O (stereo unspecified) + CNC(=O)c1ccc(Nc2nc(OC3CCCC3)c3c(-c4ccc5nc(C)oc5c4)c[nH]c3n2)c(OC)c1	> 9.02

----------
# System: 156681-154-R-J1-PDC complex spheroid viability
# protocol.summary: Anticancer human tumor 156681-154-R-J1-PDC cell line growth inhibition [CLK]; active = viability on the fitted dose curve at most 10% of control; inactive = the rest;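 also: spheroids exposed to the agents for seven days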
# run.conditions: second compound 0.316 µM; first compound 3.16 µM
Outcomes: true (active), false (inactive)

molecule	label.class
CCCS(=O)(=O)Nc1ccc(F)c(C(=O)c2c[nH]c3ncc(-c4ccc(Cl)cc4)cc23)c1F + CN1CCN(c2cc(C(=O)Nc3cc4cc(-c5cnn(C)c5)ccc4cn3)ccn2)CC1	false
CC(CO)NC(=O)c1cc(-c2ccc(Cl)cc2)nn(-c2cnn(C)c2)c1=O (stereo not drawn) + CNC(=O)c1ccc(Nc2nc(OC3CCCC3)c3c(-c4ccc5nc(C)oc5c4)c[nH]c3n2)c(OC)c1	false
COC1C=CCC(C)C(C)S(=O)(=O)NC(=O)c2ccc3c(c2)N(CC2CCC21)CC1(CCCc2cc(Cl)ccc21)CO3 (stereo not drawn) + CN1CCN(c2cc(C(=O)Nc3cc4cc(-c5cnn(C)c5)ccc4cn3)ccn2)CC1	true

----------
# Test system: 156681-154-R-J1-PDC complex spheroid viability
# protocol.summary: Anticancer human tumor 156681-154-R-J1-PDC cell line growth inhibition [CLK]; active = viability on the fitted dose curve at most 10% of control; inactive = the rest;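 also: spheroids exposed to the agents for seven days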
# run.conditions: second compound 0.316 µM; first compound 3.16 µM
Possible outcomes: yes (1) for active, no (0) for inactive

compound	label.class
COc1ccc([C@@H](O)c2cc(-c3ncnc4cc(N5CCOCC5)ccc34)c(F)cc2Cl)nn1 + CNC(=O)c1ccc(Nc2nc(OC3CCCC3)c3c(-c4ccc5nc(C)oc5c4)c[nH]c3n2)c(OC)c1	no (0)
CC1(C)CCC(CN2CCN(c3ccc(C(=O)NS(=O)(=O)c4ccc(NCC5CCOCC5)c([N+](=O)[O-])c4)c(Oc4cnc5[nH]ccc5c4)c3)CC2)=C(c2ccc(Cl)cc2)C1 + CN1CCN(c2cc(C(=O)Nc3cc4cc(-c5cnn(C)c5)ccc4cn3)ccn2)CC1	yes (1)
COc1cccc2c1C(=O)c1c(O)c3c(c(O)c1C2=O)CC(O)(C(=O)CO)CC3OC1CC(N)C(O)C(C)O1 (stereo not drawn) + CNC(=O)c1ccc(Nc2nc(OC3CCCC3)c3c(-c4ccc5nc(C)oc5c4)c[nH]c3n2)c(OC)c1	yes (1)

----------
# Tested on: 156681-154-R-J1-PDC complex spheroid viability
# protocol.summary: Anticancer human tumor 156681-154-R-J1-PDC cell line growth inhibition [CLK]; active = viability on the fitted dose curve at most 10% of control; inactive = the rest;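 also: spheroids exposed to the agents for seven days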
# run.conditions: second compound 10 µM; first compound 0.01 µM
Possible outcomes: Y (active), N (inactive)

molecule	label.class
COc1c(OCCCN2CCOCC2)ccc2c3n(c(=NC(=O)c4cnc(N)nc4)nc12)CCN3 + CNC(=O)c1ccc(Nc2nc(OC3CCCC3)c3c(-c4ccc5nc(C)oc5c4)c[nH]c3n2)c(OC)c1	N
CCc1c2c(nc3ccc(O)cc13)-c1cc3c(c(=O)n1C2)COC(=O)[C@]3(O)CC + CNC(=O)c1ccc(Nc2nc(OC3CCCC3)c3c(-c4ccc5nc(C)oc5c4)c[nH]c3n2)c(OC)c1	N
CCN1CCN(Cc2ccc(Nc3ncc(F)c(-c4cc(F)c5nc(C)n(C(C)C)c5c4)n3)nc2)CC1 + CN1CCN(c2cc(C(=O)Nc3cc4cc(-c5cnn(C)c5)ccc4cn3)ccn2)CC1	Y
CCc1c2c(nc3ccc(O)cc13)-c1cc3c(c(=O)n1C2)COC(=O)[C@]3(O)CC + CN1CCN(c2cc(C(=O)Nc3cc4cc(-c5cnn(C)c5)ccc4cn3)ccn2)CC1	Y

----------
# System: 156681-154-R-J1-PDC complex spheroid viability
# protocol.summary: Anticancer human tumor 156681-154-R-J1-PDC cell line growth inhibition [CLK];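 also: spheroids exposed to the agents for seven days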;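 as to viability, T/C: 100% = DMSO vehicle control viability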
# run.conditions: second compound 0.0316 µM; first compound 0.316 µM; stronger effect = lower value
Label rule met when viability, T/C is strictly below 20%; otherwise label rule not met.

compound	label.class
Nc1ccccc1NC(=O)c1ccc(CNC(=O)OCc2cccnc2)cc1 + CN1CCN(c2cc(C(=O)Nc3cc4cc(-c5cnn(C)c5)ccc4cn3)ccn2)CC1	rule not met
COc1ccc([C@@H](O)c2cc(-c3ncnc4cc(N5CCOCC5)ccc34)c(F)cc2Cl)nn1 + CN1CCN(c2cc(C(=O)Nc3cc4cc(-c5cnn(C)c5)ccc4cn3)ccn2)CC1	rule not met
CC(=O)O[C@H]1C(=O)[C@@]2(C)[C@H]([C@H](OC(=O)c3ccccc3)[C@]3(O)C[C@H](OC(=O)[C@H](O)[C@@H](NC(=O)c4ccccc4)c4ccccc4)C(C)=C1C3(C)C)[C@]1(OC(C)=O)CO[C@@H]1C[C@@H]2O + CNC(=O)c1ccc(Nc2nc(OC3CCCC3)c3c(-c4ccc5nc(C)oc5c4)c[nH]c3n2)c(OC)c1	rule met
CCc1c2c(nc3ccc(O)cc13)-c1cc3c(c(=O)n1C2)COC(=O)[C@]3(O)CC + CNC(=O)c1ccc(Nc2nc(OC3CCCC3)c3c(-c4ccc5nc(C)oc5c4)c[nH]c3n2)c(OC)c1	rule met
C#Cc1c(F)ccc2cc(O)cc(-c3ncc4c(N5CC6CCC(C5)N6)nc(OCC56CCCN5CC(F)C6)nc4c3F)c12 (centres undefined) + CN1CCN(c2cc(C(=O)Nc3cc4cc(-c5cnn(C)c5)ccc4cn3)ccn2)CC1	rule not met
O=C(c1cc(Cc2n[nH]c(=O)c3ccccc23)ccc1F)N1CCN(C(=O)C2CC2)CC1 + CN1CCN(c2cc(C(=O)Nc3cc4cc(-c5cnn(C)c5)ccc4cn3)ccn2)CC1	rule not met
C=CC(=O)N1CCN(c2nc(=O)n(-c3c(C)ccnc3C(C)C)c3nc(-c4c(O)cccc4F)c(F)cc23)C(C)C1 (centres undefined) + CN1CCN(c2cc(C(=O)Nc3cc4cc(-c5cnn(C)c5)ccc4cn3)ccn2)CC1	rule not met
Nc1ccn(C2OC(CO)C(O)C2(F)F)c(=O)n1 (centres undefined) + CNC(=O)c1ccc(Nc2nc(OC3CCCC3)c3c(-c4ccc5nc(C)oc5c4)c[nH]c3n2)c(OC)c1	rule met
